Biological target: T1, human GIP receptor (human) (UniProt P48546)
T1 sequence (looked up): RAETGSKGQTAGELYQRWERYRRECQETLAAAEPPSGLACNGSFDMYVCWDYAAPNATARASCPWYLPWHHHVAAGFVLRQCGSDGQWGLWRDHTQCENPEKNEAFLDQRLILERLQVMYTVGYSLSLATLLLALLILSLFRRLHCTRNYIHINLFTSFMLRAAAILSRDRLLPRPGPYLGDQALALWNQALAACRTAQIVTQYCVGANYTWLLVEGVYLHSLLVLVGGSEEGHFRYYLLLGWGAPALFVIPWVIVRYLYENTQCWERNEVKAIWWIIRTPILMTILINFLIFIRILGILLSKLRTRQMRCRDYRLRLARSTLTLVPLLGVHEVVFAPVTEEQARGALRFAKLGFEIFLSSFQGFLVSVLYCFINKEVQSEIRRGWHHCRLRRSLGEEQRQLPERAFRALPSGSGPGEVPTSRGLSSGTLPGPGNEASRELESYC
Test: cell-based or functional assay
Non-standard residues stand in square brackets, D forms with d. No end group written: not given here. αMePhe(2-F) = C[C@](N)(Cc1ccccc1F)C(=O)O; Aib = CC(C)(N)C(=O)O
# cAMP Rel EC50, nM (1% HSA) per entry
Please state the figure in nM; there is no need to write the unit.

Recorded cAMP Rel EC50, nM (1% HSA), per entry:
# input For the binder shown here, YXQGTFTSDXSRXLDKKAQXAFIEXLIEGGPSSGAPPPSGS (Aib, 4Pal, αMeL, Me4Pal; lipidated Lys; C-terminal amide; synthetic construct; SITE 2: note = 2-Aminoisobutyric Acid; SITE 10: note = 3-(4-Pyridyl)-L-alanine; SITE 13: note = alpha-methyl-leucine; SITE 17: note = Lysine is chemically modified through conjugation of the epsilon-amino group of the Lysine side chain with (gamma-Glu)2-CO-(CH2)16-CO2H; SITE 20:) [Example 953] , give the reported cAMP Rel EC50, nM (1% HSA).
# output 10.9

# input How about YXQGTFTSDFSXXLDKKAQXAFIEYLLEGGPSSGAPPPGGS (not fully specified; free C-terminus (not amidated); synthetic construct; SITE 2: note = 2-Aminoisobutyric Acid; SITE 12: note = L-ornithine; SITE 13: note = alpha-methyl-leucine; SITE 17: note = Lysine is chemically modified through conjugation of the epsilon-amino group of the Lysine side chain with (2-[2-(2-Amino-ethoxy)-ethoxy]-acetyl)-(gamma-Glu)) [Example 196] ?
# output 51.4

# input How about YXQGTXTSDYSILLDKKAQXAFIEXLEEGGPSSGAPPPSEG (synthetic construct; SITE 2: note = 2-Aminoisobutyric Acid; SITE 6: note = alpha-methyl-2-fluoro-L-phenylalanine; SITE 17: note = Lysine is chemically modified through conjugation of the epsilon-amino group of the Lysine side chain with (2-[2-(2-Amino-ethoxy)-ethoxy]-acetyl)-(gamma-Glu)-CO-(CH2) 16-) [Example 411] ?
# output 23.8

# input How about YXQGTXTSDXXIXLDXKAQXXFIEXLLEGGPSSGEPPPE (synthetic construct; SITE 2: note = 2-Aminoisobutyric Acid; SITE 6: note = alpha-methyl-2-fluoro-L-phenylalanine; SITE 10: note = 3-(4-Pyridyl)-L-alanine; SITE 11: note = alpha-methyl-L-serine; SITE 13: note = alpha-methyl-leucine; SITE 16: note = L-ornithine; SITE 17: note = Lysine is chemically mo) [Example 377] ?
# output 11.1

# input How about Y[Aib]QGT[αMePhe(2-F)]TSDYSILLDAQAAKEFIEYLIEGGPSSGEPPPSEG-NH2 (not fully specified (residue 20)) [Example 351] ?
# output 57.5

Now for a further binder.
# input For the binder shown here, YXQGTFTSDFSRXLDKKAQXAFIEYLLEGGESSGAPPPSGS (synthetic construct; SITE 2: note = 2-Aminoisobutyric Acid; SITE 13: note = alpha-methyl-leucine; SITE 17: note = Lysine is chemically modified through conjugation of the epsilon-amino group of the Lysine side chain with (2-[2-(2-Amino-ethoxy)-ethoxy]-acetyl)-(gamma-Glu)-CO-(CH2) 16-CO2H; SITE 20: n) [Example 148] , give the reported cAMP Rel EC50, nM (1% HSA).
# output 74.2
